Each record here notes measured IC50.
# target-or-test-system: KRAS G12D-GTP & SOS1 (Homo sapiens (Human), UniProt P01116, G12D)
# Sequence (P01116-2 other isoform, or with tags, fused parts or gaps G12D): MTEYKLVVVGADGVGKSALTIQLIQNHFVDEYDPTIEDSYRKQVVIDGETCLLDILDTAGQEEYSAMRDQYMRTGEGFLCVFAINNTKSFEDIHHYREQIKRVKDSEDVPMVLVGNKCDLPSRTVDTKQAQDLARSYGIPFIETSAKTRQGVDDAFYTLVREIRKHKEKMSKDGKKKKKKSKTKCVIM
# test-summary: KRAS G12D/SOS1 binding experiment (HTRF)
# protocol-conditions: competitive binding
Numeric answer only, unit nM assumed.

For orientation, consider the following solved cases.
C#Cc1nc(-c2cc(O)cc3ccccc23)c(F)c2nc(OC[C@@]34CCCN3C[C@H](F)C4)nc(N3CC4CCC(C3)N4)c12 : 11.7
C#Cc1c(F)ccc2cc(O)cc(-c3nc(C#C)c4c(N5CC6CC(C5)N6)nc(OC[C@@]56CCCN5C[C@H](F)C6)nc4c3F)c12 : 31.4
C#Cc1c(F)ccc2cc(O)cc(-c3nc(C#C)c4c(N5CCN[C@@H](C)C5)nc(OC[C@@]56CCCN5C[C@H](F)C6)nc4c3F)c12 : 24.1
C#Cc1c(F)ccc2cc(O)cc(-c3nc(C#CCCC#N)c4c(N5CC6CCC(C5)N6)nc(OC[C@@]56CCCN5C[C@H](F)C6)nc4c3F)c12 : 34.6

Recorded result, `C#Cc1c(F)ccc2cc(O)cc(-c3nc(OCCC(F)(F)F)c4c(N5CC6CCC(C5)N6)nc(OC[C@@]56CCCN5C[C@H](F)C6)nc4c3F)c12` , IC50: 12.6
